target: hNaV1.7 (Homo sapiens); construct: expressed in transfected cells; assay: Patch voltage clamp electrophysiology (EP), Syncropatch 384PE, Nav1.7 in CHO cells; format: cell-based; conditions: holding potential −50 mV, inhibition based on 7.5 min compound incubation, read-out: hNaV1.7 EP_SP
// map IC50 to label using class 1 = under 60 nM, class 2 = from 60 nM up to 200 nM, class 3 = 200 nM and over

Illustrative cases are given below, each with its answer.
Challenge: // return the class label for O=C(NS(=O)(=O)c1ccc(O[C@@H]2CCNC2)cc1)c1cc(Cl)c(OCC2CCCC2)cc1F (single isomer, unassigned) [Example 69]
Response given: class 2

Challenge: # bin label for O=C(NS(=O)(=O)c1ccc(OCC2CNC2)cc1)c1cc(Cl)c(OCC2CCCC2)cc1F [Example 296]
Response given: class 3

Next:
Challenge: Class (by measured IC50) for O=C(NS(=O)(=O)C1CC12CCC2)c1cc(Cl)c(OCC2CCCC2)cc1F (centres unmarked) [Example 256]
Response given: class 1

Challenge: Band of CN(C)[C@H]1CCCC[C@@H]1Oc1ccc(S(=O)(=O)NC(=O)c2cc(Cl)c(OCC3CCCC3)cc2F)c(F)c1 [Example 66] ?
Response given: class 3

Challenge: Band assignment needed for CN(C)C1(C)CCCN(c2cc(F)c(S(=O)(=O)NC(=O)c3cc(Cl)c(OCC4CCCC4)cc3F)c(F)c2)C1 (centres unmarked) [Example 76] please.
Response given: class 1

Challenge: Place this compound in its band: O=C(NS(=O)(=O)N1CCC(OC2CN(CC(F)(F)F)C2)CC1)c1cc(Cl)c(OCC2CCCC2)cc1F [Example 13]
Response given: class 3

Challenge: # bin lookup: classify C[C@H]1CCCCN1S(=O)(=O)NC(=O)c1cc(Cl)c(OCC2CCCC2)cc1F (single isomer, unassigned) [Example 224] by its IC50
Response given: class 1

Challenge: Please let me know in which category the item O=C(NS(=O)(=O)N1CC(O[C@@H]2CCCNC2)C1)c1cc(Cl)c(OCC2CCCC2)cc1F (single isomer, unassigned) [Example 48] belongs.
Response given: class 3

Challenge: Into which category would you place O=C(NS(=O)(=O)N1CC(O[C@@H]2CCNC2)C1)c1cc(Cl)c(OCC2CCCC2)cc1F (single isomer, unassigned) [Example 31, 2,2,2-trifluoroacetate] ?
Response given: class 3

Challenge: // return the class label for O=C(NS(=O)(=O)c1ccc(OCC(F)(F)F)cc1)c1cc(Cl)c(OCC2CCCC2)cc1F [Example 287]
Response given: class 3

Challenge: Which IC50 band matches N[C@]12C[C@H]1CN(S(=O)(=O)NC(=O)c1cc(Cl)c(OCC3CCCC3)cc1F)C2 (single isomer, unassigned) [Example 217, 2,2,2-trifluoroacetate] ?
Response given: class 3

Challenge: # bin lookup: classify CN(C)[C@H]1CCCC[C@@H]1Nc1ccc(S(=O)(=O)Nc2nc3ccc(OCC4CCCC4)c(Cl)c3s2)c(F)c1 [Example 333] by its IC50
Response given: class 2

Challenge: In plain terms, what class is Cn1nccc1COc1ccc(S(=O)(=O)NC(=O)c2cc(Cl)c(OCC3CCCC3)cc2F)cc1 [Example 315] ?
Response given: class 1

====

target: hNaV1.7 (Homo sapiens, UniProt Q15858); construct: expressed in transfected cells; test: Patch voltage clamp electrophysiology (EP), Syncropatch 384PE, Nav1.7 in CHO cells; assay type: cell-based; conditions: holding potential −50 mV, inhibition based on 7.5 min compound incubation, read-out: hNaV1.7 EP_SP;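 note: Nav1.7 stably expressed from cDNA in CHO cells, holding potential of −50 mV kept for the entire experiment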
Sequence (Q15858 1-1977 isoform Q15858-3): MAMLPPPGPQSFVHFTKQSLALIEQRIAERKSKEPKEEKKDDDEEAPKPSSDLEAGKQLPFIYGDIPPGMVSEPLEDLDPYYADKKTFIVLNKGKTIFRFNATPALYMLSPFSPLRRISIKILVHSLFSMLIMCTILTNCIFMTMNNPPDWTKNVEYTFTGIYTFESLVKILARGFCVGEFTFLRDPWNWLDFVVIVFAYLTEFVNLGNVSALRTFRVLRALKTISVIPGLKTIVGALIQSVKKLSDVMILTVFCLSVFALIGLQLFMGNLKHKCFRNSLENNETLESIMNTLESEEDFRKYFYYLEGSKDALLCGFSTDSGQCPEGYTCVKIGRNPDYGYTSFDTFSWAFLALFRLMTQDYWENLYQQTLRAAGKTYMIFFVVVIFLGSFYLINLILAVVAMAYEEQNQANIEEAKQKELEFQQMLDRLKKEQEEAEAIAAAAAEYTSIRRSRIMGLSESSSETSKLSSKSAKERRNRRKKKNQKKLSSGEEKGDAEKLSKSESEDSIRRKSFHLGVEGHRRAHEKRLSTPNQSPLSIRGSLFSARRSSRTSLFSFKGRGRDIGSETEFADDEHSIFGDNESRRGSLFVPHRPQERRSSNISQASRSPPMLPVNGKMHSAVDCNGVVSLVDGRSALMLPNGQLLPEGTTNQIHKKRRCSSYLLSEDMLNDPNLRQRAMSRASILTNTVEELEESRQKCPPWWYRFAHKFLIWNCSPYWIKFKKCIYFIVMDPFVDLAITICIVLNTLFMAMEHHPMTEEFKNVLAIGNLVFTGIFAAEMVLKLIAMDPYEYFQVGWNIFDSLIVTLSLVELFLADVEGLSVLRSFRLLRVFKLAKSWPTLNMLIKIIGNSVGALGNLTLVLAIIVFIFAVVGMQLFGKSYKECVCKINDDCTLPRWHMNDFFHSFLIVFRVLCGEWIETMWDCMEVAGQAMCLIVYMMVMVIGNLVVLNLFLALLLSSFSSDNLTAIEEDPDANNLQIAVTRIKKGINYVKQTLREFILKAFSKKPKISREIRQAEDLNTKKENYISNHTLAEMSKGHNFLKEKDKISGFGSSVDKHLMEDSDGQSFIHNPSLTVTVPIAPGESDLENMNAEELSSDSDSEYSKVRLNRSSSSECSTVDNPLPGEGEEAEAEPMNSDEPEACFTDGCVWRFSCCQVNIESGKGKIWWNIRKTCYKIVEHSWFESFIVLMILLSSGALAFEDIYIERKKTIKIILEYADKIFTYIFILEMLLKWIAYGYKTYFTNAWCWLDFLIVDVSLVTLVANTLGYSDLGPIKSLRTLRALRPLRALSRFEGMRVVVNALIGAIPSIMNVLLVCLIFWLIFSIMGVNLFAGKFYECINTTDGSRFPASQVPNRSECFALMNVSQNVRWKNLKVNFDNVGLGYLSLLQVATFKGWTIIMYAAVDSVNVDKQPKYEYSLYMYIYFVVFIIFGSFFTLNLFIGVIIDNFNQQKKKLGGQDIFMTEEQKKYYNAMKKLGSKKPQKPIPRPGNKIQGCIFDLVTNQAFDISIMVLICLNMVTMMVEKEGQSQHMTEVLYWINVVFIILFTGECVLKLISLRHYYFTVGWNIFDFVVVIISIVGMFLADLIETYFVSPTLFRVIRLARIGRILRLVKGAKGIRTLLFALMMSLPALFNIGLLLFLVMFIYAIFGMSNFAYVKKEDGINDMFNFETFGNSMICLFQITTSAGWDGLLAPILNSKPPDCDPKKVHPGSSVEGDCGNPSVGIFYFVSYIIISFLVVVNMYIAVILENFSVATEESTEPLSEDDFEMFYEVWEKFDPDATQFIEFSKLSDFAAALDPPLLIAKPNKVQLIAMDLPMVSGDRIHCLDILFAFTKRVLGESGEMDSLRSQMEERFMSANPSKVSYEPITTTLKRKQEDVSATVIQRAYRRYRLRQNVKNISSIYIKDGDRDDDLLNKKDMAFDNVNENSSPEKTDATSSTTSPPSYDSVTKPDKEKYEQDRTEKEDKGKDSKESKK
ENDPOINT: IC50 (nM)
Expressed in nM, but write only the number.

The following molecules have reported results that may help.
Challenge: Recorded IC50 for O=C(NS(=O)(=O)C1CCNC1)c1cc(Cl)c(OCC2CCCC2)cc1F (stereo not drawn) [Example 322] with hNaV1.7 (Homo sapiens, UniProt Q15858), please?
Response given: 510

Challenge: Record CN(C)C1CCCN(c2ccc(S(=O)(=O)NC(=O)c3cc(Cl)c(OCC4CCCC4)cc3F)cc2)C1 (single isomer, unassigned) [Example 209] : what is its IC50 with hNaV1.7 (Homo sapiens, UniProt Q15858)?
Response given: 110

Challenge: Find the measured IC50: item CC[C@@H](C)S(=O)(=O)NC(=O)c1cc(Cl)c(OCC2CCCC2)cc1F (single isomer, unassigned) [Example 255] , target or system hNaV1.7 (Homo sapiens, UniProt Q15858).
Response given: 26

Challenge: Any idea what IC50 came out for CN(C)[C@H]1CCCC[C@@H]1Nc1cc(F)c(S(=O)(=O)NC(=O)c2cc(Cl)c(OCC3CCCC3)cc2F)c(F)c1 [Example 206] on hNaV1.7 (Homo sapiens, UniProt Q15858)?
Response given: 50

Challenge: Field: IC50 (hNaV1.7 (Homo sapiens, UniProt Q15858)). Entry: COC[C@H](C)S(=O)(=O)NC(=O)c1cc(Cl)c(OCC2CCCC2)cc1F (single isomer, unassigned) [Example 248]
Response given: 760

Challenge: Identify the measured IC50 of O=C(NS(=O)(=O)C1=Cc2ccccc2CC1)c1cc(Cl)c(OCC2CCCC2)cc1F [Example 275] for hNaV1.7 (Homo sapiens, UniProt Q15858).
Response given: 510

Challenge: Find the measured IC50: item O=C(NS(=O)(=O)C1CCCCC1)c1cc(Cl)c(OCC2CCCC2)cc1F [Example 82] , target or system hNaV1.7 (Homo sapiens, UniProt Q15858).
Response given: 30

Challenge: Param readout = IC50; param system = hNaV1.7 (Homo sapiens, UniProt Q15858); param query = CN(C)[C@H]1C[C@@H](c2cccc(C(F)(F)F)c2)CC[C@@H]1Oc1ccc(S(=O)(=O)NC(=O)c2cc(C3CC3)ccc2F)c(F)c1 [Example 75] ; response: value
Response given: 120

Challenge: Form entry - test system: hNaV1.7 (Homo sapiens, UniProt Q15858); read-out: IC50; molecule: O=C(NS(=O)(=O)N1CCCCC1)c1cc(Cl)c(OCC2CCCC2)cc1F [Example 21]
Response given: 14

Challenge: Observed IC50 on hNaV1.7 (Homo sapiens, UniProt Q15858) for CN1CC(OC2CCN(S(=O)(=O)NC(=O)c3cc(Cl)c(Oc4ccc(Cl)c(C(F)(F)F)c4)cc3F)CC2)C1 [Example 239] , please.
Response given: 25

Moving on to another molecule below.
Challenge: Quick check: IC50 on hNaV1.7 (Homo sapiens, UniProt Q15858), item O=C(NS(=O)(=O)N1CCc2ccccc2C1)c1cc(Cl)c(OCC2CCCC2)cc1F [Example 19] ?
Response given: 310
